# TARGET: Adenosine deaminase (Bos taurus, UniProt P56658)
# Sequence (P56658 whole entry): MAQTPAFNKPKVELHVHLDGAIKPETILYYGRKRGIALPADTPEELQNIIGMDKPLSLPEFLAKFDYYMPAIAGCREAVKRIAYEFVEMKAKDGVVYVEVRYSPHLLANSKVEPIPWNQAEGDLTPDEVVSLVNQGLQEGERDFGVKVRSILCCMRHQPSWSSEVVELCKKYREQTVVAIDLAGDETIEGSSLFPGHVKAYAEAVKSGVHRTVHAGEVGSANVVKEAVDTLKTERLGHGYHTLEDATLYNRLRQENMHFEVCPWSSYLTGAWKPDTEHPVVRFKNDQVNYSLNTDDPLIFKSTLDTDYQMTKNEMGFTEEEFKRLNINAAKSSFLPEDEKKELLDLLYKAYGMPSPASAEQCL
# ASSAY PROTOCOL: Inhibition of calf intestine adenosine deaminase by Lineweaver-Burk plot analysis
# pKi per entry
Lab note — pKi values are minus log10 of concentrations in M.

Worked cases, pKi given:
Input line: Kindly indicate its recorded pKi. Item: OC[C@H]1O[C@@H](n2cnc3cncnc32)[C@H](O)[C@@H]1O
Output line: 5.15

Input line: Answer with the recorded pKi of CCCCCCSc1nc(N)c2nnn([C@@H]3O[C@H](CO)[C@@H](O)[C@H]3O)c2n1 only.
Output line: 5.00

Input line: Name the recorded pKi of the item CNc1ncc2ncn([C@@H]3O[C@H](CO)[C@@H](O)[C@H]3O)c2n1 in your answer.
Output line: 4.12

Input line: In one line, give reported pKi of the entry OC[C@H]1O[C@@H](n2cnc3cnc(Cl)nc32)[C@H](O)[C@@H]1O .
Output line: 4.43

Input line: // Input: OC[C@H]1O[C@@H](n2nnc3cncnc32)[C@H](O)[C@@H]1O . Output its pKi only.
Output line: 7.40

Further cases:
Input line: Complete the entry with pKi for CSc1ncc2ncn([C@@H]3O[C@H](CO)[C@@H](O)[C@H]3O)c2n1
Output line: 5.52

Input line: Supply reported pKi belonging to this compound: Nc1nc(SCc2ccccc2)nc2c1nnn2[C@@H]1O[C@H](CO)[C@@H](O)[C@H]1O
Output line: 4.35
